# Hydrophobicity, Luna C18(2) HST (0–60% B; 10 min), retention converted into % MeCN per entry
- assayDetails: Hydrophobicity by analytical RP-HPLC (% MeCN at peak elution)
- Assay type: physicochemical
// note: answer is a bare numeric in % MeCN

**Q:** Would you mind telling me what Hydrophobicity, Luna C18(2) HST (0–60% B; 10 min), retention converted into % MeCN value was observed for C[C@@H](c1ccccc1)N(CCC(=O)N[C@@H](CCCCN)C(=O)N(CCC(=O)N[C@@H](CCCCNC(=N)N)C(=O)N(CCC(=O)N[C@@H](CCCCN)C(=O)N(CCC(=O)N[C@@H](CCCCNC(=N)N)C(=O)N(CCC(=O)N[C@@H](CCCCN)C(=O)N(CCC(N)=O)[C@@H](C)c1ccccc1)[C@@H](C)c1ccccc1)[C@@H](C)c1ccccc1)[C@@H](C)c1ccccc1)[C@@H](C)c1ccccc1)C(=O)[C@H](CCCCNC(=N)N)NC(=O)C=Cc1ccccc1 [Compound 6, Cinn-[hArg-βNspe-Lys-βNspe]3-NH2] ?
**A:** 45.9

**Q:** Would you mind telling me what Hydrophobicity, Luna C18(2) HST (0–60% B; 10 min), retention converted into % MeCN value was observed for CC(=O)N[C@@H](CCCCNC(=N)N)C(=O)N(CCC(=O)N[C@@H](CCCCN)C(=O)N(CCC(=O)N[C@@H](CCCCNC(=N)N)C(=O)N(CCC(=O)N[C@@H](CCCCN)C(=O)N(CCC(=O)N[C@@H](CCCCNC(=N)N)C(=O)N(CCC(=O)N[C@@H](CCCCN)C(=O)N(CCC(N)=O)[C@@H](C)c1ccccc1)[C@@H](C)C1CCCCC1)[C@@H](C)c1ccccc1)[C@@H](C)C1CCCCC1)[C@@H](C)c1ccccc1)[C@@H](C)C1CCCCC1 [Compound 5, Ac-[hArg-βNsce-Lys-βNspe]3-NH2] ?
**A:** 46.6

**Q:** Would you mind telling me what Hydrophobicity, Luna C18(2) HST (0–60% B; 10 min), retention converted into % MeCN value was observed for CC(=O)N[C@@H](CCCCNC(=N)N)C(=O)N(CCC(=O)N[C@@H](CCCCNC(=N)N)C(=O)N(CCC(=O)N[C@@H](CCCCNC(=N)N)C(=O)N(CCC(=O)N[C@@H](CCCCNC(=N)N)C(=O)N(CCC(=O)N[C@@H](CCCCNC(=N)N)C(=O)N(CCC(=O)N[C@@H](CCCCNC(=N)N)C(=O)N(CCC(N)=O)[C@@H](C)C1CCCCC1)[C@@H](C)C1CCCCC1)[C@@H](C)C1CCCCC1)[C@@H](C)C1CCCCC1)[C@@H](C)C1CCCCC1)[C@@H](C)C1CCCCC1 [Compound 2, Ac-[hArg-βNsce]6-NH2] ?
**A:** 51.6

---

- System: E. faecium 2961
- assayDetails: microbe, parasite or virus in culture
- Type: cell-based, Enterococcus faecium
- conditionParameters: 2961, 24 h
readoutLabel: Minimum inhibitory concentration (µg/mL)
// note: answer is a bare numeric in µg/mL

Examples with their reported Minimum inhibitory concentration follow.
NCCCC[C@H](NC(=O)CCN(Cc1cc(F)c(F)c(F)c1)C(=O)[C@H](CCCCN)NC(=O)CCN(Cc1cc(F)c(F)c(F)c1)C(=O)[C@H](CCCCN)NC(=O)CCN(Cc1cc(F)c(F)c(F)c1)C(=O)[C@H](CCCCN)NC(=O)CCN(Cc1cc(F)c(F)c(F)c1)C(=O)[C@H](CCCCN)NC(=O)CCN(Cc1cc(F)c(F)c(F)c1)C(=O)[C@@H](N)CCCCN)C(=O)N(CCC(N)=O)Cc1cc(F)c(F)c(F)c1 [Compound 8, H-[Lys-βNPhe(F3)]6-NH2]	2
CC(=O)N[C@@H](CCCCNC(=N)N)C(=O)N(CCC(=O)N[C@@H](CCCCNC(=N)N)C(=O)N(CCC(=O)N[C@@H](CCCCNC(=N)N)C(=O)N(CCC(=O)N[C@@H](CCCCNC(=N)N)C(=O)N(CCC(=O)N[C@@H](CCCCNC(=N)N)C(=O)N(CCC(=O)N[C@@H](CCCCNC(=N)N)C(=O)N(CCC(N)=O)[C@@H](C)C1CCCCC1)[C@@H](C)C1CCCCC1)[C@@H](C)C1CCCCC1)[C@@H](C)C1CCCCC1)[C@@H](C)C1CCCCC1)[C@@H](C)C1CCCCC1 [Compound 2, Ac-[hArg-βNsce]6-NH2]	2

Next up:
**Q:** Would you mind telling me what Minimum inhibitory concentration value was observed for CC(=O)N[C@@H](CCCCNC(=N)N)C(=O)N(CCC(=O)N[C@@H](CCCCNC(=N)N)C(=O)N(CCC(=O)N[C@@H](CCCCNC(=N)N)C(=O)N(CCC(=O)N[C@@H](CCCCNC(=N)N)C(=O)N(CCC(=O)N[C@@H](CCCCNC(=N)N)C(=O)N(CCC(=O)N[C@@H](CCCCNC(=N)N)C(=O)N(CCC(=O)N[C@@H](CCCCNC(=N)N)C(=O)N(CCC(=O)N[C@@H](CCCCNC(=N)N)C(=O)N(CCC(N)=O)Cc1ccccc1)Cc1ccccc1)Cc1ccccc1)Cc1ccccc1)Cc1ccccc1)Cc1ccccc1)Cc1ccccc1)Cc1ccccc1 [Compound 1, Ac-[hArg-βNPhe]8-NH2] ?
**A:** 2
